molecular target: recombinant human CD38 (human, UniProt P28907 43-300, limits assumed); test: SPR (Biacore 8K), antibody captured, antigen injected;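 note: antibodies held on a CM5 chip through anti-human IgG Fc, antigen in 3-fold serial dilutions, 1 min association then 10 min dissociation at 25 °C, 1:1 Langmuir global fit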
Listing of entries alongside the reported Kd.
VALUE_TYPE: Kd (nM)

| BINDER | VALUE_TYPE | UNIT_INFO | RESULT_NUMBER |
| --- | --- | --- | --- |
| 25C3 (antibody, human IgG1, kappa, V domains shown, Rabbit-human chimeric anti-CD38: rabbit VH and VL on human IgG1 and kappa constant regions) VH: QEQLEESGGDLVKPGASLTLTCKASGFSFSSAYDMCWVRQAPGKGLEWVACLYTVSSDSIYYASWAKGRFTISRTSSTTVTLQMTSLTAADTATYFCARDGDYFALWGPGTLVTVSS VL: DIVMTHTPASVEAAVGGTVTIKCQASQNIGGYLSWYQQKPGQRPKLLIYRASTLASGVPSRFKGSGSGTQFTLTISDLESADAATYYCQTYYYSGSSRYWAFGGGTEVVVKR | Kd | nM | 0.03 |
| 25F12 (antibody, human IgG1, kappa, V domains shown, Rabbit-human chimeric anti-CD38: rabbit VH and VL on human IgG1 and kappa constant regions) VH: RSLEESGGRLVTPGTPLTLTCTTSGFSLSSYDMSWVRQAPGKGLEWIGYITYGGNIYYATWAKGRFTTSKTSTTVDLKITSPTTEDTATYFCARTLYTGGRYYFSLWGPGTLVTVSS VL: AQVLTQTPSSVSAVVGGTVTINCQSSQSIANSNEVAWYQQKLGQPPKLLIYDASTLASGVPSRFSGSGSGTQFTLIISGVQSDDAATYYCQGTVYDNVWYAAFGGGTEVVVKR | Kd | nM | 0.01 |
